These data points were gathered from paper PMC9482650.

Tested system: T1, MPP6, Q9NZW5
T1 sequence (Q9NZW5 125-219, limits assumed, looked up): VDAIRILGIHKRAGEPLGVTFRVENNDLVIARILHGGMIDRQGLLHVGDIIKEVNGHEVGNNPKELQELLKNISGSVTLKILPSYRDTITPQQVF
Assay procedure: holdup assay
Set-up: key: below the threshold = too weak to quantify, mostly under pKd 3.1 to 4
Condition notes: plain residues with an end cap or a label only (N-terminal biotin on a linker: ahx)
Outcome measure: pKd

>>> assay_value("RRRKRKRTYL [HPV49-L2, P36762]")
"below the threshold"
>>> assay_value("PSASCAVTAA [PDLIM4, P50479;P50479-2]")
"below the threshold"
>>> assay_value("RAVEEEESRF [PSCDBP, O60759]")
"below the threshold"
>>> assay_value("NRKREIFSNF [NHERF2, Q15599]")
"below the threshold"
